# target-entity: Fes (UniProt P07332)
# Sequence (P07332 whole entry, looked up): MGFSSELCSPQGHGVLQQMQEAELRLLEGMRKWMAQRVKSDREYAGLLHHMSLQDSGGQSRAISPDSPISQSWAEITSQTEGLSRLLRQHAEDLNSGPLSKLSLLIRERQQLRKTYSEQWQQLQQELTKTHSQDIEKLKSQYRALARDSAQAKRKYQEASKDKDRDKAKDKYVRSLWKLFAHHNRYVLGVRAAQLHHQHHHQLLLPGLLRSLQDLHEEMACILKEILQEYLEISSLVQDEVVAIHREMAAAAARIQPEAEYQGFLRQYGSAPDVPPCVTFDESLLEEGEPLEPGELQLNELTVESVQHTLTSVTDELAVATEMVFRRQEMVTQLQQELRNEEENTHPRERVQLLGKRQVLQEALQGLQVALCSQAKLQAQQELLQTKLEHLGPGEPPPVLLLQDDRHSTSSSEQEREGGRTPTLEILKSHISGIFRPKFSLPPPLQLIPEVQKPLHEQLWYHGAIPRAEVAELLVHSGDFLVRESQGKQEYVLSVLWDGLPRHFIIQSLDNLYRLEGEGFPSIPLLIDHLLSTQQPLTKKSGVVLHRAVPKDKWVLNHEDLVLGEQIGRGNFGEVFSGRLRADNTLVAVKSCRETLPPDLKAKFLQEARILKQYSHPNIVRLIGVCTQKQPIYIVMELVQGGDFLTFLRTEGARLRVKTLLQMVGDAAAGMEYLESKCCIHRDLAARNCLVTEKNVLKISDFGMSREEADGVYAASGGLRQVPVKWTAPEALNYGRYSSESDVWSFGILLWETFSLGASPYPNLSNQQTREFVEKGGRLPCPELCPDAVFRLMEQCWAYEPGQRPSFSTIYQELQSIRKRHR
# measurement-description: phosphorylation enrichment, bacterial display (enrichment ratio); higher = better substrate or ligand; peptides without Tyr show the background;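 also: 11-residue human phosphosite peptides and single-mutation variants displayed on the E. coli surface, counted by deep sequencing, each peptide's frequency after selection divided by its frequency in the unselected input library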;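 also: frequency after pTyr selection over input frequency; kinase dosed for 20-30% of maximal phosphorylation in three min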
For each record, write down the corresponding phosphorylation enrichment.
Give bare numbers.

seq-text | phosphorylation enrichment
KPNMNYDKLSW [FLI1_Y332_R337W] | 0.741
HYPDVYAREQL [ALX3_Y181] | 0.912
EFNLMYDGTKE [IRF6_Y97] | 1.14
EIVYVYVKKRS [DNAI2_Y7] | 1.1
PSQRRYLYYYS [PTEN_Y174_V175L] | 1.4

Hi! Can you tell me phosphorylation enrichment for each of these sequences?
1. TNGFTYGSSHQ [MANEA_Y331]
2. HGEAFYSEVKP [PAK5_Y182_YF]
3. LHRHAYPEQRQ [DPPA2_Y127]

A.
1: 0.576; 2: 1.04; 3: 0.967

* * *

# target-entity: FGFR1 (UniProt P11362)
# Sequence (P11362 whole entry, looked up): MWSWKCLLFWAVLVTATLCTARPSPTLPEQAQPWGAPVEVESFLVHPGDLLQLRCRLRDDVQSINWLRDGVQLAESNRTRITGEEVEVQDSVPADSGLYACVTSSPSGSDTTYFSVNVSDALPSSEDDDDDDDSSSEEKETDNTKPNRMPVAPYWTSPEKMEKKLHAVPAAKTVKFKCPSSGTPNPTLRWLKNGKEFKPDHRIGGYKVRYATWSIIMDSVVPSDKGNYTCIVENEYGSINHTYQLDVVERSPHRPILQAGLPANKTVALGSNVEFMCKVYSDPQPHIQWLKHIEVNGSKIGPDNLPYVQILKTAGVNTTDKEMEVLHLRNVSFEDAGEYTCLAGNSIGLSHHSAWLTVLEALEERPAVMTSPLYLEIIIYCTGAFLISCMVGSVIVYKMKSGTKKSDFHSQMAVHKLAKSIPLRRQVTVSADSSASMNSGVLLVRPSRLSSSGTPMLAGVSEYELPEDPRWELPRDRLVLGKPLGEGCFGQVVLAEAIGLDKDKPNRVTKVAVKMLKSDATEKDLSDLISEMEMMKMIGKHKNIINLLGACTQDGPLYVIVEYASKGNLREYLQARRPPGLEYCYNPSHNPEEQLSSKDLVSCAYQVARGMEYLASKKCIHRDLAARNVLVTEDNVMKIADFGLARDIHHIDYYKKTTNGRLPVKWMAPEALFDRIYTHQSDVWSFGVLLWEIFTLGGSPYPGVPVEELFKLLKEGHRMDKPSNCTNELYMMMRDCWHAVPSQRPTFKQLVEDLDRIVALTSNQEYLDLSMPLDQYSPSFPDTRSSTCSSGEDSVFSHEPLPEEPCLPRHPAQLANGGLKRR
# measurement-description: phosphorylation enrichment, bacterial display (enrichment ratio); higher = better substrate or ligand; peptides without Tyr show the background
For each record, write down the corresponding phosphorylation enrichment.
Numbers only.

Answered examples (2):
seq-text | value-measured
IPGMEYLVSII [TNC_Y1775_V1773M] | 0.72
NNIDFYKNTTN [FGFR2_Y657_K659N_YF] | 0.442

Hi! Can you tell me phosphorylation enrichment for each of these sequences?
1. QTPVLYAMLDH [MPZ_Y220]
2. GTQCSYLLSRK [UGT3A1_Y123]
3. SGLDSYVRSLP [TRAPPC1_Y133_R129G]
4. SARFRYLMAEK [LDHB_Y173]
5. IFCIQYNICAF [MYH4_Y820_R823C]
6. LVKDGYQMAQP [CSF1R_Y873]
7. QWRTKYETDTI [MYH7_Y1375_A1379T]

A.
1: 3.44; 2: 0.482; 3: 0.453; 4: 0.352; 5: 0.451; 6: 0.45; 7: 0.473

Hi! Can you tell me phosphorylation enrichment for each of these sequences?
1. SIGLGYHKDLQ [NF1_Y1169]
2. LLNPSYNLPLD [TOM1L1_Y109_R108S]
3. IVRSRYEDLED [VHL_Y185_L184R]

A.
0.414
0.595
0.664

* * *

For each record, write down the corresponding phosphorylation enrichment.
# target-entity: MERTK (UniProt Q12866)
# Sequence (Q12866 whole entry, looked up): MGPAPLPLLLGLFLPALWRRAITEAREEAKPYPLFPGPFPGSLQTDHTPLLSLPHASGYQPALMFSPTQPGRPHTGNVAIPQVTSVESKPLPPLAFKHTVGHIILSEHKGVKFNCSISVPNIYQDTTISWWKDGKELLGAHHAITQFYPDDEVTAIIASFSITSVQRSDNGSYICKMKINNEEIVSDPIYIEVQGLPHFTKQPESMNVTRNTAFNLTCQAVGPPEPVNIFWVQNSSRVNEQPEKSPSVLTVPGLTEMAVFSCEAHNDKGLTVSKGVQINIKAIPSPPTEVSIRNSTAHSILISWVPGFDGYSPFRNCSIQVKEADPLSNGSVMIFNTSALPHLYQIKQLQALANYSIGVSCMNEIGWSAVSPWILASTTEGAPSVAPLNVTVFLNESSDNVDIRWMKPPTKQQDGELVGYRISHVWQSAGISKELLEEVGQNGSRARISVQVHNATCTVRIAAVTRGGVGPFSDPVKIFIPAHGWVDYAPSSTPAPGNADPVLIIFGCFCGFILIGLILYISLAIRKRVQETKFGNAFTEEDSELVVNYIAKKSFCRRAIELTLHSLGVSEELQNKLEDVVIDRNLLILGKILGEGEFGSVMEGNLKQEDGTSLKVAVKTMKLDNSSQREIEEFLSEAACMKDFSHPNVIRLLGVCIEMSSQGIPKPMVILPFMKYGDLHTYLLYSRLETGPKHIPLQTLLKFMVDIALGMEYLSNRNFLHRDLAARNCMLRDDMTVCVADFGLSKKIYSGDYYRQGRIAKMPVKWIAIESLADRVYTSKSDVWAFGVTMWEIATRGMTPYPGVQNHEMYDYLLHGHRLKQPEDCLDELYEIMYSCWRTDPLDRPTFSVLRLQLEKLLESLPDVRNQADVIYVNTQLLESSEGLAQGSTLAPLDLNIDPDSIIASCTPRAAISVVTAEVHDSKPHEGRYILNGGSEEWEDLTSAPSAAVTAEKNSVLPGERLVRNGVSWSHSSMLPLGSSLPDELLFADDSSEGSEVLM
# measurement-description: phosphorylation enrichment, bacterial display (enrichment ratio); higher = better substrate or ligand; peptides without Tyr show the background
Give bare numbers.

seq-text | phosphorylation enrichment
TNYSLYLRSLE [MTM1_Y71_R69S] | 0.602
IALNSCHSRNC [IFNGR1_Y397_Y397C] | 0.406
KAPVDYIRKLQ [MITF_Y360_S357P] | 0.399

Hi! Can you tell me phosphorylation enrichment for each of these sequences?
1. KRLAVYQAGAR [APOE_Y180]
2. IPGMEYLVSII [TNC_Y1775_V1773M]
3. TRFDEYLEVTK [MAP1A_Y2217_H2214Y_YF]
4. QMVDMYASSFM [AVPR2_Y124_G122D_YF]
5. STEVIYQPRRK [STK11_Y36]

A.
[0.346, 0.565, 0.819, 0.707, 0.643]

Hi! Can you tell me phosphorylation enrichment for each of these sequences?
1. MKALGYFAVVT [OPA1_Y498]
2. VFFGSYSRPFG [NKAP_Y104_YF]
3. SSYSRYIMMPN [LEF1_Y114_G113R]
4. IRQDHYESLKE [MTR_Y921]
5. VNTTLYEKFTF [TEK_Y1108_YF]
6. LIYTNYEVGKD [GSTP1_Y112_A114V]

A.
1. 0.403
2. 0.777
3. 3.9
4. 0.509
5. 4.71
6. 11.3

Hi! Can you tell me phosphorylation enrichment for each of these sequences?
1. HICTAYELVLA [DHCR24_Y190]
2. MPQNEYIELHC [NSA2_Y6_R11C]
3. FLGRDYLETLM [DUS3L_Y610_YF]
4. TQNGVYSAANY [DDX5_Y535]
5. GFEVVYMTEPI [HSP90AB1_Y512]
6. IFRASYVPFAA [RBM47_Y541_G538R_YF]

A.
1.56
0.478
0.471
4.8
0.405
0.389
